# Tested on: Staphylococcus aureus
# experiment: Inhibition of C-terminal hexahistidine-tagged recombinant Staphylococcus aureus Ddl expressed in Escherichia coli BL21(DE3) assessed as remaining activity using D-Ala as substrate at 250 uM incubated for 5 mins in presence of ATP by antimony phosphomolybdate assay (reference value: 100+/-2%)
property_name: Activity (%)

• CC1CN(C(=O)OC(C)(C)C)CCN1CCOC(=O)NS(=O)(=O)NCC[C@H]1O[C@@H](n2cnc3c(N)ncnc32)[C@H](O)[C@@H]1O (stereo not given in full) = 95
• COc1ccc(CCOC(=O)NS(=O)(=O)NCC[C@H]2O[C@@H](n3cnc4c(N)ncnc43)[C@H](O)[C@@H]2O)cc1 = 89
• Nc1ncnc2c1ncn2[C@@H]1O[C@H](CCNS(=O)(=O)NC(=O)OCCc2ccccc2F)[C@@H](O)[C@H]1O = 84
• N[C@@H]1CONC1=O = 35
• Cc1ccc(CCCOC(=O)NS(=O)(=O)NCC[C@H]2O[C@@H](n3cnc4c(N)ncnc43)[C@H](O)[C@@H]2O)cc1 = 82
